- system name: VIM-1 (Pseudomonas aeruginosa, UniProt A0A0F7KYQ8)
- test name: Enzyme activity: determination of IC50, fluorescence assay with CCF2-FA substrate
- Format: biochemical
- measurement parameters: VIM-1 enzyme 30 pM, CCF2-FA 1.25 μM, 2 hours at 25° C.; read-out: VIM1 IC50
property name: IC50
Could you give the number and then its unit, please?

CCC[C@H](C(=O)O)[C@H](Cc1ccc(CCN2CCCCC2=O)cc1)c1nn[nH]n1 [Example 256]	16 nM
CC(C)C[C@H](C(=O)O)[C@H](Cc1ccc(NCCC(C)N)nc1)c1nnn[nH]1 (some centres unmarked) [Example 318]	11 nM
CCC[C@H](C(=O)O)[C@H](Cc1ccc(C2CCN(C(=N)N)CC2)cc1)c1nnn[nH]1 [Example 296]	21 nM
CC(C)C[C@H](C(=O)O)[C@H](Cc1ccc(N2CCC(CN)CC2)nc1)c1nnn[nH]1 [Example 307]	24 nM
CC(C)C[C@H](C(=O)O)[C@H](Cc1ccc(N[C@H]2CC[C@H](N)C2)nc1)c1nnn[nH]1 [Example 317]	14 nM
CC(C)C[C@H](C(=O)O)[C@H](Cc1ccc(CCN2CCCCC2=O)c(F)c1)c1nn[nH]n1 [Example 438]	1.57 nM
CCC[C@H](C(=O)O)[C@H](Cc1cccc(N2CCC[C@@H](N)C2)c1)c1nn[nH]n1 [Example 370]	6.3 nM
CCC[C@H](C(=O)O)[C@H](Cc1cccc(-c2ccc(C3CCNCC3)cc2)c1)c1nn[nH]n1 [Example 350]	3 nM

Quick batch: IC50 for everything below.
1. CCC[C@H](C(=O)O)[C@H](CCc1ccc(N)nc1)c1nnn[nH]1 [Example 405]
2. CC(C)C[C@H](C(=O)O)[C@H](Cc1ccc(N2CC(S(C)(=O)=O)C2)nc1)c1nnn[nH]1 [Example 335]
3. CC(C)C[C@H](C(=O)O)[C@H](Cc1ccc(CN(C)C)c(F)c1)c1nn[nH]n1.O=C(O)C(F)(F)F [Example 443, 2,2,2-trifluoroacetate]

-- reply
39.6 nM
4.9 nM
4.29 nM

Quick batch: IC50 for everything below.
1. CCC[C@H](C(=O)O)[C@H](Cc1ccc(C(=O)NCC2CC2)cc1)c1nnn[nH]1 [Example 282]
2. CC(C)(C)[C@H](C(=O)O)[C@H](Cc1ccc(C2=CCNC2)nc1)c1nnn[nH]1.O=C(O)C(F)(F)F [Example 429, 2,2,2-trifluoroacetate]
3. CCC[C@H](C(=O)O)[C@H](Cc1ccc2nsnc2c1)c1nnn[nH]1 [Example 271]
4. CCC[C@H](C(=O)O)[C@H](Cc1ccc(-c2ccc(-c3nnn[nH]3)cc2)cc1)c1nnn[nH]1 [Example 246]
5. CCC[C@H](C(=O)O)[C@H](Cc1cccc(F)c1)c1nnn[nH]1 [Example 260]
6. CC(C)C[C@H](C(=O)O)[C@H](Cc1ccc(N2CCCC2CO)nc1)c1nnn[nH]1 (some centres unmarked) [Example 315]

-- reply
19 nM
23.8 nM
1.1 nM
2.2 nM
3.7 nM
6 nM

Quick batch: IC50 for everything below.
1. CCC[C@H](C(=O)O)[C@H](Cc1ccc(F)cc1F)c1nnn[nH]1 [Example 262]
2. CCC[C@H](C(=O)[O-])[C@H](Cc1ccc(C2=CCC[N+](C)(C)C2)nc1)c1nnn[nH]1 [Example 293]
3. CCC[C@H](C(=O)[O-])[C@H](Cc1ccc(C2CC[N+](C)(C)C2)cc1)c1nnn[nH]1 (some centres unmarked) [Example 418]

-- reply
3.1 nM
22 nM
30.8 nM
